experiment: in vitro; conditions: mouse
Description: Selectivity index, ratio of CC50 for mouse J774.2 cells to IC50 for Trypanosoma cruzi ITRI/MX/2018/TH
QUANTITY_KIND: selectivity ratio
Just the number, please.

Record C[C@]12CC[C@H]3[C@@H](CC=C4C[C@@H](O)CC[C@@]43C)[C@@H]1CC[C@@H]2O , field selectivity ratio: 7.5

----------
test system: Trypanosoma cruzi; assay: microbe, parasite or virus in culture; type: functional, organism-based; conditions: MHOM/MX/1994/Ninoa, 24 h
Description: Antitrypanosomal activity against Trypanosoma cruzi MHOM/MX/1994/Ninoa infected in animal assessed as reduction in viable parasite in blood measured after 24 hrs by neubauer chamber assay
QUANTITY_KIND: IC50

INSERT INTO assay_data (structure, value_observed) VALUES
  ('C[C@]12CC[C@H]3[C@@H](CC=C4C[C@@H](O[N+](=O)[O-])CC[C@@]43CO[N+](=O)[O-])[C@@H]1CCC2=O', '295 µM'),
  ('C[C@]12CC[C@H]3[C@@H](CC=C4C[C@@H](O)CC[C@@]43C)[C@@H]1CC[C@@H]2O', '> 300 µM');

Kindly review the next compound as well.
Record C[C@]12CC[C@H](O[N+](=O)[O-])CC1=CC[C@@H]1[C@@H]2CC[C@]2(C)C(=O)CC[C@@H]12 , field IC50: > 300 µM
